# Tested system: Rho-A (Homo sapiens, UniProt P61586)
# Sequence (P61586 1-190): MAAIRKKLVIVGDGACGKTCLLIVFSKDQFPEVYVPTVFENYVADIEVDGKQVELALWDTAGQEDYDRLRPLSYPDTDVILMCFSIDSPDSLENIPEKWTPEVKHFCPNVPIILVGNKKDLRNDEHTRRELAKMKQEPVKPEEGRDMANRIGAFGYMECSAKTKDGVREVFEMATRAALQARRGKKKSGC
# Protocol details: Ras GTP binding domain inhibition assay (Cy3-GTP/Cy5-GTP competition)
# Experimental conditions: with SOS, read-out: Rho-A + SOS: % inh.
Catalogue of inhibition at 20 µM values

Query string: I have this compound here, CO[C@H]1CC[C@@H](Nc2nc(-c3ncc[nH]3)nc3sc(-c4ccn(C)n4)c(-c4ccccc4)c23)C1 [drawing 1046] , and I need its recorded inhibition at 20 µM.
Result string: 26 to 50%

Query string: Now try O=C(c1nc(-c2ccccn2)nc(O)c1O)N1CCOCC1 [drawing 935] .
Result string: 26 to 50%

Query string: Now try COc1cccc(-c2sc3nc(-c4nccn4C)nc(NC4CCC(OC)C4)c3c2C)c1F (stereo not drawn) [drawing 1028] .
Result string: 76 to 100%

Query string: Now try Cn1ccnc1-c1nc(O)c(O)c(C(=O)N2CCCCC2)n1 [drawing 961] .
Result string: 51 to 75%

Query string: Now try COCC(C)Nc1nc(-c2nccn2C)nc2sc(-c3ccccc3Cl)c(-c3cscn3)c12 (stereo not drawn) [drawing 989] .
Result string: 26 to 50%

----------
# Tested on: KRas G12C mutant
# Protocol details: Ras GTP binding domain inhibition assay (Cy3-GTP/Cy5-GTP competition)
# Set-up: species or system human
# Experimental conditions: 20 μM; without SOS
Quantity measured: KRas G12C mutant: % inh.

The cases that follow already have their KRas G12C mutant: % inh. on record.
> print(dat)
                                   compound                 result
1  COCC1CCN(c2nc(-c3nccn3C)nc3sc(-c4ccn(C)n4)c(-c4ccccc4)c23)C1 (stereo not shown) [drawing 858]  B (26-50% inhibition)
2  COc1ccc(-c2c(-c3ccn(C)n3)sc3nc(-c4nccn4C)nc(N4CCC(OC)C4)c23)cc1 (stereo not shown) [drawing 868]      0 (0% inhibition)
3  COCCCN(C)c1nc(-c2nccn2C)nc2sc(-c3ccn(C)n3)c(-c3ccccc3)c12 [drawing 865]   A (1-25% inhibition)
4  COC1CCN(c2nc(-c3nccn3C)nc3sc(-c4ccn(C)n4)c(-c4ccccc4)c23)CC1 [drawing 856]  B (26-50% inhibition)
5  COCCNc1nc(-c2cn(C)cn2)nc2sc(-c3cccc(OC)c3Cl)c(-c3ccc(OC)cc3)c12 [drawing 797]  B (26-50% inhibition)

Query string: I have this compound here, O=C(NCc1ccccc1)c1nc(-c2ccccn2)nc(O)c1O [drawing 821] , and I need its recorded KRas G12C mutant: % inh..
Result string: B (26-50% inhibition)

Query string: Now try COc1cccc(-c2sc3nc(-c4nccn4C)nc(N4CCC(OC)C4)c3c2-c2ccccc2)c1F.Cl (stereo not shown) [drawing 838] .
Result string: B (26-50% inhibition)

Query string: Now try COc1c(O)nc(-c2ccccn2)nc1Oc1ccc2ncccc2c1 [drawing 804] .
Result string: C (51-75% inhibition)

Query string: Now try COCCNc1nc(-c2nccn2C)nc2sc(-c3cccc(OC)c3)c(-c3ccc(OC)cc3)c12 [drawing 875] .
Result string: C (51-75% inhibition)

Query string: Now try COCCNc1nc(-c2nccn2C)nc2sc(-c3cc(OC)ccc3Cl)c(-c3ccccc3)c12 [drawing 871] .
Result string: 0 (0% inhibition)
